Assay: melting temperature; fluorescence melt of hairpins on a sequencing array, two-state fit, raised by 9.35 °C to match UV melts
Conditions: sodium 0.088 M
quantity: Tm (°C)
Number only, in °C; omit the unit.

// below: answered sequences
GTGGGGACGAAAGTCCAC (((..(((....))))))
61.8
GCTAATGCGAAAGCAAGC (((..(((....))))))
36.1
GATCTCTTTTGAGATC ((((((....))))))
55
GGAGCGGGAAACCGCTTC (.(((((....))))).)
58.2
GTGTTCGAAAGAACCAC ((((((....))).)))
43.5

Quick one: Tm of GGGAGCGGAAACACTCCC (((((.(....).))))) ?
50.8

Quick one: Tm of GGCCCCGAAAGGGCGGCC ((((((....)))..))) ?
64.7

Quick one: Tm of GGTCTCGAAAGAGCACC ((((((....))).))) ?
46.5
